Each entry below carries its reported GI50.
tested on: HCT-15 colon; assay: NCI tumour cell line growth inhibition, 48 h

Below: 5 molecules and their reported GI50.
# molecule, GI50
measured = [
    ("c1cc[n+](Cc2c3ccccc3cc3c2ccc2ccccc23)cc1", "> 100 µM"),
    ("Cc1ccc(C2=NN(c3ccc(S(=O)(=O)NC(=O)NCc4ccccc4)cc3)C(c3ccc(N(C)C)cc3)C2)c(C)c1 (centres undefined)", "3.27 µM"),
    ("C[n+]1cccc(NC(=O)c2ccc3ccc4ccc(C(=O)Nc5ccc[n+](C)c5)nc4c3n2)c1", "3.37 µM"),
    ("CC(C)[C@@]12C[C@@H](OC(=O)COC(=O)c3ccccc3)[C@@](C)(O1)[C@@H]1CC[C@@H](C)[C@H]1[C@@H]2OC(=O)/C=C/c1ccccc1", "> 89 µM"),
    ("CC1(C)CC[C@]23CC[C@]4(C)[C@H](CC[C@@H]5[C@@]6(C)CCCNC(C)(C)[C@@H]6CC[C@]54C)[C@H]2[C@H]1OC3", "1.31 µM"),
]

We now examine a further molecule.
stdin: # input molecule: CCCCCOC(=O)Nc1nc(=O)n(C2OC(C)C(O)C2O)cc1F (centres undefined) ; wanted: its GI50
stdout: > 10000 µM

====

Reported TGI values for the following compounds.
test system: RPMI-8226 leukemia; experiment: NCI tumour cell line growth inhibition, 48 h

Please review the entries below; each comes with its answer.
# compound, TGI
data = [
    ("Cc1[nH]c(=O)n2c(C)nnc2c1C(=O)O", "> 100 µM"),
    ("CC1=CC2(C)C=C[C@@H]1C(=O)[C@@]1(C)CC[C@@](O)(C(C)C)[C@H]1CC2", "62 µM"),
    ("CC(=O)OC(COc1ccc2c(c1)[n+]([O-])nc(N)[n+]2[O-])CN1CCCCC1 (centres undefined)", "25.8 µM"),
    ("CC[C@]12C=CCN3CC[C@@]4(c5ccc(OC)cc5N(C)[C@H]4[C@@](O)(C(=O)OC)[C@@H]1OC(=O)CCC(=O)O[C@H]1CC[C@H]4[C@@H]5CCC6=CC(=O)CC[C@@H]6[C@H]5CC[C@]14C)[C@@H]32", "3.11 µM"),
    ("CS(=O)(=O)N1CCC(Nc2ncc(C(=O)c3c(F)cccc3F)c(N)n2)CC1", "> 25 µM"),
]

stdin: What measured TGI goes with CN1C(=O)C(=Cc2ccc(Br)cc2)C(=O)N(C)C1=O ?
stdout: > 100 µM

stdin: What about this compound? CC(=O)OCc1nnn2c1C(OC(C)=O)CC2 (centres undefined)
stdout: > 100 µM

stdin: What do you have for N#CC1=C(N)N=C(N2CCOCC2)C(C#N)C12Nc1ccccc1S2 (centres undefined) ?
stdout: 88.5 µM

stdin: // same read-out, input: CC1(C)N=C(N)N=C(N)N1c1ccc(OCC(=O)Nc2ccc(S(=O)(=O)F)cc2Cl)c(Cl)c1
stdout: > 100 µM

stdin: Entry c1ccc(-c2cc3nc4ccccc4nc3cc(-c3ccccc3)[nH][nH]2)cc1 please
stdout: > 100 µM

stdin: CC(=O)Oc1ccc2c(=O)c(C(C)=O)coc2c1 ?
stdout: > 100 µM

stdin: Also N#Cc1c(-c2ccccc2)cn(C(=O)c2ccccc2)c1N ?
stdout: > 100 µM

stdin: What do you have for CCOC(=O)c1c(-c2ccccc2)n2c(=O)cc(C)c3c(O)c(O)cc1c32 ?
stdout: 17.9 µM

stdin: Quick one: CC1(C)N=C(C(N)=O)c2ncn(Cc3ccccc3)c2N1
stdout: > 100 µM
